# Target or test system: P. aeruginosa LpxC (Pseudomonas aeruginosa (strain ATCC 15692 / DSM 22644 / CIP 104116 / JCM 14847 / LMG 12228 / 1C / PRS 101 / PAO1), UniProt P47205)
# Assay comment: biochemical
# Assay conditions: 5 nM P. aeruginosa LpxC, 2.5 μM substrate, 1 hour at room temperature
Entries and their IC50

Example cases with answers are listed next.
>  <Smiles code>
CC(C)C(=O)N1C[C@H](NC(=O)[C@@H]2CC(F)(F)CN2)C[C@@H]1C(=O)NCc1ccc(C#Cc2ccc(CN3CCOCC3)cc2)cc1

>  <Result>
50 to 100 nM

$$$$
>  <Smiles code>
CC(C)C(=O)N1C[C@H](NC(=O)[C@@H]2C[C@@H](F)CN2)C[C@@H]1C(=O)NCc1ccc(C#CC#CC2CC2)cc1

>  <Result>
100 to 1000 nM

$$$$
>  <Smiles code>
COCCN1C[C@H](NC(=O)[C@@H]2C[C@H](F)CN2)C[C@@H]1C(=O)NCc1ccc(C#CC#CC2CC2)cc1

>  <Result>
100 to 1000 nM

$$$$
>  <Smiles code>
C[C@@H](CN)C(=O)N1C[C@H](NC(=O)[C@@H]2C[C@H](F)CN2)C[C@@H]1C(=O)NCc1ccc(C#CC#CC2CC2)cc1

>  <Result>
50 to 100 nM

$$$$
>  <Smiles code>
CC(C)C(=O)N1C[C@H](NC(=O)[C@@H]2CCCN2)C[C@@H]1C(=O)NCc1ccc(C#Cc2ccccc2)cc1

>  <Result>
100 to 1000 nM

$$$$

Please fill in: IC50 reported for CC(C)C(=O)N1C[C@H](NC(=O)[C@@H]2CCCN2)C[C@@H]1C(=O)NCc1ccc(C#CC#CC2CC2)cc1 = 100 to 1000 nM

get_value(item= C[C@H](CN)C(=O)N1C[C@H](NC(=O)[C@@H]2C[C@H](F)CN2)C[C@@H]1C(=O)NCc1ccc(C#CC#CC2CC2)cc1 , readout=IC50) returns 50 to 100 nM

---

Measured IC50 of individual entries
# Target or test system: E. coli LpxC (Escherichia coli (strain K12))
# Sequence (P0A725 whole entry): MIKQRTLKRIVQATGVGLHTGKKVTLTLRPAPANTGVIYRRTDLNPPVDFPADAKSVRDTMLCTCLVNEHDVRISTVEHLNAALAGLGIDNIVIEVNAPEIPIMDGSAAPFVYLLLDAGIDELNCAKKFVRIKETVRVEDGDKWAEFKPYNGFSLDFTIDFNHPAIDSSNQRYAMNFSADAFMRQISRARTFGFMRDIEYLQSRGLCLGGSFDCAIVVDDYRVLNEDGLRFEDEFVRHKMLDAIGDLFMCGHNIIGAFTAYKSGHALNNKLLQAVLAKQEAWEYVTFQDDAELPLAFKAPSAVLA
# Assay comment: in vitro substrate deacetylation assay for inhibition of LpxC (ADDA analysis)
# Assay conditions: 5 nM E. coli LpxC, 2.5 μM substrate, 1 hour at room temperature
# Description: Exemplary compounds from the above Examples were tested for ability to inhibit LpxC activity using an in vitro substrate deacetylation assay with ADDA™ analysis. Assay procedures and results are described below. Dilutions of test compound were pre-incubated with 5 nM P. aeruginosa or E. coli LpxC for 10 minutes at room temperature in 50 mM NaH2PO4, 500 mM sucrose, 0.2 mg/mL BSA, pH 7.2 and <1% DMSO. […]

Example cases with answers are listed next.
>  <Molecule>
NC1CN(C(=O)N2C[C@H](NC(=O)[C@@H]3C[C@H](F)CN3)C[C@@H]2C(=O)NCc2ccc(C#CC#CC3CC3)cc2)C1 [Example 9X]

>  <Result>
500 to 2500 nM

$$$$
>  <Molecule>
CC(C)C(=O)N1C[C@H](NC(=O)[C@@H]2CC(F)(F)CN2)C[C@@H]1C(=O)NCc1ccc(C#CC#CC2CC2)cc1 [Example 9G]

>  <Result>
500 to 2500 nM

$$$$
>  <Molecule>
CC(C)C(=O)N1C[C@H](NC(=O)[C@@H]2CCCN2)C[C@@H]1C(=O)NCc1ccc(C#Cc2ccccc2)cc1 [Example 9J]

>  <Result>
2500 to 10000 nM

$$$$
>  <Molecule>
CC(C)C(=O)N1C[C@H](NC(=O)[C@@H]2C[C@H](F)CN2)C[C@@H]1CNC(=O)c1ccc(C#Cc2ccc(CN3CCOCC3)cc2)cc1 [Example 5]

>  <Result>
< 500 nM

$$$$

Let us move to another entry and its IC50.
Record CC(C)C(=O)N1C[C@H](NC(=O)[C@@H]2C[C@@H](F)CN2)C[C@@H]1C(=O)NCc1ccc(C#Cc2ccc(CN3CCOCC3)cc2)cc1 [Example 9H] , field IC50: 2500 to 10000 nM
